For each record, write down the corresponding Ki.
# tested on: human RIP1 kinase domain (2-375) (Homo sapiens (Human))
# measurement description: biochemical
# Type: biochemical
# assay conditions: tight-binding apparent inhibition constant; human RIP1 kinase domain (2-375) 50 nM, 50 uM ATP, 2 hours; read-out: Ki
One number for each entry, in nM.

Examples with their reported Ki follow.
| compound | Ki (nM) |
| --- | --- |
| CN1C(=O)[C@@H](NC(=O)c2ncn(Cc3ccc(F)cc3F)n2)CCn2nccc21 (racemic) | 12.8 |
| CN1C(=O)[C@@H](NC(=O)c2cc3c(cn2)cnn3C(F)(F)F)COc2ccccc21 | 7.02 |
| CN1C(=O)[C@@H](NC(=O)c2nnc(Cc3cccc(F)c3F)[nH]2)CCn2nc(C3CC3)cc21 | 17 |
| Cc1cc2n(n1)CC[C@H](NC(=O)c1ncc3c(n1)C1(CCOCC1)OC3)C(=O)N2C | 840 |
| CN1C(=O)[C@@H](NC(=O)c2nnc(Cc3cccc(F)c3F)[nH]2)CCn2nc(C(F)(F)F)cc21 | 72 |

Provide Ki values for the following items, in order.
1. Cc1cc2n(n1)CC[C@H](NC(=O)c1ncc3c(n1)C(C)(CC(F)(F)F)OC3)C(=O)N2C (stereo partly shown)
2. C=C(C)c1cc2n(n1)CCC(NC(=O)c1ncn(Cc3ccccc3)n1)C(=O)N2C (racemic)

Given back:
[370, 31.1]

---

# tested on: human RIP1 kinase domain (2-375) (Homo sapiens (Human))
# measurement description: biochemical
# Assay type: biochemical
# assay conditions: tight-binding apparent inhibition constant; human RIP1 kinase domain (2-375) 50 nM, 50 uM ATP, 2 hours; read-out: Ki
pKi: −log10 of the molar value.
The label depends only on pKi: t if it is at least 7, f if it is smaller.

| molecule | label value |
| --- | --- |
| CC(C)c1cc2n(n1)CC[C@H](NC(=O)c1ncn(Cc3ccccc3)n1)C(=O)N2C | t |

Asked: Check if pKi >= 7 (inclusive). Item: CN1C(=O)[C@@H](NC(=O)c2ncn(Cc3cccc(F)c3F)n2)CCn2nccc21 (racemic)
Given back: t

Asked: Decide: pKi of CN1C(=O)[C@@H](NC(=O)c2nc3n(n2)CCO[C@H]3c2ccccc2)COc2ccccc21 (racemic) [Example 695] >= 7?
Given back: f

Asked: Entry O=C(N[C@H]1COc2cc(F)cc(F)c2NC1=O)c1nc2cccc(C(F)(F)F)n2n1 : is its pKi no less than 7?
Given back: t

---

# tested on: human RIP1 kinase domain (2-375) (Homo sapiens (Human), UniProt Q13546)
# Sequence (Q13546 2-375): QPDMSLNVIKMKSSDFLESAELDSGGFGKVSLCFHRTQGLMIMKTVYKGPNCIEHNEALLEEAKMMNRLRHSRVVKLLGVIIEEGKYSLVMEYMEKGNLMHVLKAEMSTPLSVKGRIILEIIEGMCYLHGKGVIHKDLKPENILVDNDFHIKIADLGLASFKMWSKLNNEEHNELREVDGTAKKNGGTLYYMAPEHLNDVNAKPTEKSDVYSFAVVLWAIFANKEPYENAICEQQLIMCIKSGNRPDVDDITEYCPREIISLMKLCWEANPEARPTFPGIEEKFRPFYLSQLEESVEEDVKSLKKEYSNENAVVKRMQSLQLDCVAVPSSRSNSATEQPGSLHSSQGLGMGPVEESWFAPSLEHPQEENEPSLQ
# measurement description: biochemical
# Format: biochemical
# assay conditions: Table 5; apparent Ki (Morrison tight-binding fit); 50 nM RIP1 kinase domain, 50 uM ATP, 2 hours incubation; read-out: Ki
assay endpoint: pKi
One number for each entry, as −log10 of the molar value.

| compound | tested on | numeric value |
| --- | --- | --- |
| COCCOCCc1cc2n(n1)CC[C@H](NC(=O)c1ncn(Cc3ccccc3)n1)C(=O)N2C | human RIP1 kinase domain (2-375) (Homo sapiens (Human), UniProt Q13546) | 6.91 |
| CN1C(=O)[C@@H](NC(=O)c2ncn(Cc3ccccc3)n2)CCn2nc(CCN3CC(F)C3)cc21 | human RIP1 kinase domain (2-375) (Homo sapiens (Human), UniProt Q13546) | 6.63 |
| CCn1cc(-c2cc3n(n2)CCC(NC(=O)c2ncn(Cc4ccccc4)n2)C(=O)N3C)cn1 (single isomer, unassigned) | human RIP1 kinase domain (2-375) (Homo sapiens (Human), UniProt Q13546) | 7.57 |

Then this compound:
Asked: # pKi lookup, item CCC[C@@H]1CCCc2nc(C(=O)N[C@H]3COc4cc(F)cc(F)c4NC3=O)nn21 (single isomer, unassigned)
Given back: 8.52
